Molecular target: UniProtKB P62593
Sequence (P62593 24-286 limits assumed): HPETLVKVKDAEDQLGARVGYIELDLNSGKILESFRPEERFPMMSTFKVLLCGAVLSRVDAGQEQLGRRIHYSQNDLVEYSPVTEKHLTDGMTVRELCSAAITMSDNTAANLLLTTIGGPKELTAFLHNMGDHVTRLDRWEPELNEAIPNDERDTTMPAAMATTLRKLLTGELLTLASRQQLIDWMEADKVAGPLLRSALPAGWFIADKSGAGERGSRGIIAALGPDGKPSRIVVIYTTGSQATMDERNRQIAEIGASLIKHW
Assay: Fluorogenic β-lactamase inhibition assay (FC-5 substrate), TEM-1
Conditions: 10 min preincubation
Mark t for IC50 under 1 nM, f if at or over.

COMPOUND	CAT
NCc1ccc(C(=O)N[C@H]2Cc3cccc(C(=O)O)c3O[B-]2(O)O)cc1 [compound 2]	f
NCC1CCC(C(=O)N[C@H]2Cc3cccc(C(=O)O)c3O[B-]2(O)O)CC1 (some centres unmarked) [compound 3]	f
O=C(N[C@H]1Cc2cccc(C(=O)O)c2O[B-]1(O)O)c1ccc(CN2CCNCC2)cc1 [compound 4]	t
NCCNCc1ccc(C(=O)N[C@H]2Cc3cccc(C(=O)O)c3O[B-]2(O)O)cc1 [compound 5]	f

----------
Target: NDM-1 (Klebsiella pneumoniae, UniProt C7C422)
Sequence (C7C422 29-270, looked up, species assumed): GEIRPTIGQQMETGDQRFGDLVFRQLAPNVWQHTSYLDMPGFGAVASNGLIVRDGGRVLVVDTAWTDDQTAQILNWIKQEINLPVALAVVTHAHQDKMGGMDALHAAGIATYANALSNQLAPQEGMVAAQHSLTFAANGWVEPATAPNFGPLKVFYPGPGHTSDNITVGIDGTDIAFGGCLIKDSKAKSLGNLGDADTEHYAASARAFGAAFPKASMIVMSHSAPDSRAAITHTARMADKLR
Test: Fluorogenic β-lactamase inhibition assay (FC-5 substrate), NDM-1
Conditions: 10 min preincubation
pIC50: −log10 of the molar value.
Let's look at some compounds and their measured pIC50.

COMPOUND	pIC50
NCC1CCC(C(=O)N[C@H]2Cc3cccc(C(=O)O)c3O[B-]2(O)O)CC1 (stereo partly shown)	6.16
O=C(O)c1cccc2c1O[B-](O)(O)[C@@H](NC(=O)C1CCCCC1)C2	5.69
O=C(N[C@H]1Cc2cccc(C(=O)O)c2O[B-]1(O)O)c1ccc(CN2CCNCC2)cc1	7.40
NCc1ccc(C(=O)N[C@H]2Cc3cccc(C(=O)O)c3O[B-]2(O)O)cc1	7.54

----------
Target: BcII (Bacillus cereus)
Construct: made in house; host or cells: E. coli
Sequence (P04190 31-257): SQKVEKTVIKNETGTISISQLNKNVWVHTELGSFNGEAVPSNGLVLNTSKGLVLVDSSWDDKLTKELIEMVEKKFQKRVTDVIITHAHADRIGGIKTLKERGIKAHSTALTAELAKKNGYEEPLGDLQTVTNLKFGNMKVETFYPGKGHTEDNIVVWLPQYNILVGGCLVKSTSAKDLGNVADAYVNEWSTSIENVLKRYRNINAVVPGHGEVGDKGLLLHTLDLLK
Test: Fluorogenic β-lactamase inhibition assay (FC-5 substrate), BcII
Type: biochemical

COMPOUND	pIC50
O=C(O)c1cccc2c1O[B-](O)(O)[C@@H](NC(=O)C1CCCCC1)C2	5.1
NCc1ccc(C(=O)N[C@H]2Cc3cccc(C(=O)O)c3O[B-]2(O)O)cc1	6.5
NCC1CCC(C(=O)N[C@H]2Cc3cccc(C(=O)O)c3O[B-]2(O)O)CC1 (some centres unmarked)	6.0
O=C(N[C@H]1Cc2cccc(C(=O)O)c2O[B-]1(O)O)c1ccc(CN2CCNCC2)cc1	6.2
NCCNCc1ccc(C(=O)N[C@H]2Cc3cccc(C(=O)O)c3O[B-]2(O)O)cc1	5.9

----------
Molecular target: CphA (Aeromonas hydrophila, UniProt P26918)
Construct: made in house; host or cells: E. coli
Sequence (P26918 28-254): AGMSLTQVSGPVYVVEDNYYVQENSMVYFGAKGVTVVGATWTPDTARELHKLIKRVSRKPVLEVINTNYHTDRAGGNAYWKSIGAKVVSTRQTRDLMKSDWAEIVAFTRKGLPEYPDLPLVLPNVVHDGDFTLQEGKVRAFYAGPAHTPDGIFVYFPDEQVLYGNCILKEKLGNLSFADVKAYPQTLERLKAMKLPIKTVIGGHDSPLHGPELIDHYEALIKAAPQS
Experiment: B2 MBL inhibition assay (meropenem substrate), CphA
Format: biochemical, Aeromonas hydrophilia
ENDPOINT: pIC50

SMILES DATA	RESULT
O=C(N[C@H]1Cc2cccc(C(=O)O)c2O[B-]1(O)O)c1ccc(CN2CCNCC2)cc1	> 4
NCc1ccc(C(=O)N[C@H]2Cc3cccc(C(=O)O)c3O[B-]2(O)O)cc1	> 4
NCCNCc1ccc(C(=O)N[C@H]2Cc3cccc(C(=O)O)c3O[B-]2(O)O)cc1	> 4
